Assay info: Acute toxicity (LD50) in mice (i.v.)
Settings: mouse, in vivo, iv
Structures can show the parent of a compound that is named as a salt.
Measured attribute: LD50 (mg/kg)
# value in mg/kg; strip the unit string

Prompt: Please give the documented LD50 of C=C1CCc2c(N3CCC(N)C3)c(F)cc3c(=O)c(C(=O)O)cn1c23 (stereo not shown) [Ib, hydrochloric acid addition salt]
Completion: 252

The measurements presented in this section are drawn from patent US4535161A.
